// values below are reported EC50
Test system: breast cancer cell line MX-1
Experiment: MX-1 cell line proliferation assay
Type: cell-based
Conditions: MX-1 cells, 3-day proliferation assay, Cell Titer Glo; read-out: Cellular proliferation: EC50
result type: EC50

molecule="Cn1cc2c3c(c[nH]c3c1=O)C(c1cccc3cccnc13)N(c1ccc(F)cc1F)c1ccc(CS(C)(=O)=O)cc1-2 (stereo not drawn)" observed_measurement="149 nM"
molecule=Cc1ccccc1NC(=O)N1Cc2c[nH]c3c(=O)n(C)cc(c23)-c2cc(CS(C)(=O)=O)ccc21 observed_measurement="247 nM"
molecule="Cn1cc2c3c(c[nH]c3c1=O)[C@@H](c1ccccc1)N(c1ccc(F)cc1F)c1ccc(CS(C)(=O)=O)cc1-2 (single isomer, unassigned)" observed_measurement="454 nM"
